Test system: Streptococcus bovis
METHOD: In vitro antibacterial activity (MIC), two-fold dilution in microtiter system
Format: cell-based
CONDITION_SUMMARY: 1 tested strain, clinical isolate, Todd-Hewitt broth, 18-24 h at 37° C.

SMILES_ENTRY	ASSAYED_SYSTEM	M.I.C. (µg/mL)
CCCCC/C=C\CCC(=O)N[C@H]1[C@H](Oc2c3cc4cc2Oc2ccc(cc2Cl)[C@@H](O[C@@H]2O[C@H](CO)[C@@H](O)[C@H](O)[C@H]2NC(C)=O)[C@@H]2NC(=O)[C@H](NC(=O)[C@@H]4NC(=O)[C@H]4NC(=O)[C@@H](Cc5ccc(c(Cl)c5)O3)NC(=O)[C@H](N)c3ccc(O)c(c3)Oc3cc(O)cc4c3)c3ccc(O)c(c3)-c3c(O[C@H]4O[C@H](CO)[C@@H](O)[C@H](O)[C@@H]4O)cc(O)cc3[C@@H](C(=O)O)NC2=O)O[C@H](CO)[C@@H](O)[C@@H]1O	Streptococcus bovis	0.4
CC(=O)N[C@H]1[C@H](O[C@@H]2c3ccc(c(Cl)c3)Oc3cc4cc(c3O[C@@H]3O[C@H](CO)[C@@H](O)[C@H](O)[C@H]3NC(=O)CCCCCCCC(C)C)Oc3ccc(cc3Cl)C[C@H]3NC(=O)[C@H](N)c5ccc(O)c(c5)Oc5cc(O)cc(c5)[C@H](NC3=O)C(=O)N[C@H]4C(=O)N[C@H]3C(=O)N[C@@H]2C(=O)N[C@H](C(=O)O)c2cc(O)cc(O[C@H]4O[C@H](CO)[C@@H](O)[C@H](O)[C@@H]4O)c2-c2cc3ccc2O)O[C@H](CO)[C@@H](O)[C@@H]1O	Streptococcus bovis	0.4
CC(=O)N[C@H]1[C@H](O[C@@H]2c3ccc(c(Cl)c3)Oc3cc4cc(c3O[C@@H]3O[C@H](CO)[C@@H](O)[C@H](O)[C@H]3NC(=O)CCCCCCC(C)C)Oc3ccc(cc3Cl)C[C@H]3NC(=O)[C@H](N)c5ccc(O)c(c5)Oc5cc(O)cc(c5)[C@H](NC3=O)C(=O)N[C@H]4C(=O)N[C@H]3C(=O)N[C@@H]2C(=O)N[C@H](C(=O)O)c2cc(O)cc(O[C@H]4O[C@H](CO)[C@@H](O)[C@H](O)[C@@H]4O)c2-c2cc3ccc2O)O[C@H](CO)[C@@H](O)[C@@H]1O	Streptococcus bovis	0.4
